System: QG-56
Assay: Cytotoxicity against human QG56 cells after 4 days
Format: functional, cell-based
Conditions: QG-56, 96 h
pIC50: −log10 of the molar value.
Binary call on pIC50: Fulfilled from 8 upward, Not fulfilled beneath that.

Record excerpt, results attached:
# compound, category-label
records = [
    ("C/C=C(/C)C(=O)OC[C@H]1C2=C(C[C@H]3[C@H]4C5=C(C(=O)C(C)=C(OC)C5=O)[C@H](OC(C)=O)[C@@H]([C@H](C#N)N13)N4C)C(=O)C(C)=C(OC)C2=O", "Not fulfilled"),
    ("C/C=C(/C)C(=O)OC[C@H]1C2=C(C[C@H]3[C@H]4c5c(OC(C)=O)c(OC)c(C)c(OC(C)=O)c5[C@H](OC(C)=O)[C@@H]([C@H](C#N)N13)N4C)C(=O)C(C)=C(OC)C2=O", "Not fulfilled"),
    ("C/C=C(/C)C(=O)OC[C@H]1c2c(c(OC(C)=O)c(C)c(OC)c2OC(C)=O)C[C@H]2[C@H]3C4=C(C[C@@H]([C@H](C#N)N12)N3C)C(=O)C(C)=C(OC)C4=O", "Fulfilled"),
    ("C/C=C(/C)C(=O)OC[C@H]1C2=C(C[C@H]3[C@H]4c5c(O)c(OC)c(C)c(O)c5C(=O)[C@@H]([C@H](C#N)N13)N4C)C(=O)C(C)=C(OC)C2=O [RENIERAMYCIN Q]", "Not fulfilled"),
    ("C/C=C(/C)C(=O)OC[C@H]1C2=C(C[C@H]3[C@H]4C5=C(C(=O)C(C)=C(OC)C5=O)[C@H](OC)[C@@H]([C@H](C#N)N13)N4C)C(=O)C(C)=C(OC)C2=O [RENIERAMYCIN R]", "Not fulfilled"),
]

Input: Evaluate C/C=C(/C)C(=O)OC[C@H]1C2=C(C[C@H]3[C@H]4C5=C(C[C@@H]([C@H](C#N)N13)N4C)C(=O)C(C)=C(OC)C5=O)C(=O)C(C)=C(O)C2=O [RENIERAMYCIN S] : pIC50 at minimum 8?
Output: Not fulfilled
